Below is a list of entries, each paired with its recorded Concentration (M) of Antibody at 150% activation value.
- System Tested: PD-1 chimera: extracellular domain of human PD-1 with trans-membrane and cytoplasmic domains of human CD300a, … (human, UniProt Q9UGN4 181-299, limits assumed)
- Sequence (Q9UGN4 other isoform, or with tags, fused parts or gaps mutant limits assumed, form in doubt): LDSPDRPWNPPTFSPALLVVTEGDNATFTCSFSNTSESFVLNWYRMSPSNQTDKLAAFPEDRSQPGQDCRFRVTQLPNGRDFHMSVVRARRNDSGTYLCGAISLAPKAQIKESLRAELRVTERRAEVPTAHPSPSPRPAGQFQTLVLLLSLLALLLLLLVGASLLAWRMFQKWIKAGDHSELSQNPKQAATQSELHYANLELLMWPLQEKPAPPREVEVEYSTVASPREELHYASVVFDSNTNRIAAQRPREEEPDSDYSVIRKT
- Experiment Summary: cell-based or functional assay
API: value field is a number in M; no unit string.

Example entries begin here.
Binder	Readout Unit	Reported Result
H2aM7798N (antibody, V domains shown, human variable regions, mouse IgG2a Fc; also called H2M7798N) VH: EVQLLESGGVLVQPGGSLRLSCAASGFTFSNFGMTWVRQAPGKGLEWVSGISGGGRDTYFADSVKGRFTISRDNSKNTLYLQMNSLKGEDTAVYYCVKWGNIYFDYWGQGTLVTVSS VL: DIQMTQSPSSLSASVGDSITITCRASLSINTFLNWYQQKPGKAPNLLIYAASSLHGGVPSRFSGSGSGTDFTLTIRTLQPEDFATYYCQQSSNTPFTFGPGTVVDFR	M	7.99e-10
H1M7800N (antibody, V domains shown, human variable regions, mouse IgG1 Fc) VH: EVQLVESGGGLVQPGGSLRLSCAASGFTVSNNYMSWVRQAPGKGLEWVSVIYSGGFTYYTDSVKGRFTISRHNSKNTLYLQMNSLRAEDTAVYYCARYYYDTSDYWTFFDYWGQGTLVTVSS VL: EIVMTQSPATLSVSPGERATLSCRASQSVSSNLAWYQQKPGQAPRLLIYGASTRATGIPARFSGSGSGTEFTLTISSLQSGDFAVYYCQQYNNWPLTFGGGTKVEIN	M	1.65e-08

Input line: Consider the binder shown here: H4H7798N (antibody, human IgG4 S228P, kappa, V domains shown, human IgG4 Fc) VH: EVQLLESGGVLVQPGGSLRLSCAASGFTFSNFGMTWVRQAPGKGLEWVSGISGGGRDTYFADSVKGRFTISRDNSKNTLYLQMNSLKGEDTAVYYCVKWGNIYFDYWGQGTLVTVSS VL: DIQMTQSPSSLSASVGDSITITCRASLSINTFLNWYQQKPGKAPNLLIYAASSLHGGVPSRFSGSGSGTDFTLTIRTLQPEDFATYYCQQSSNTPFTFGPGTVVDFRR What is its recorded Concentration (M) of Antibody at 150% activation?
Output line: 1.54e-09

Input line: Could you do the same for H2aM7780N (antibody, V domains shown, human variable regions, mouse IgG2a Fc; also called H2M7780N) VH: QVQLVESGGGVVQSGRSLRLSCAASGFTFSSYGMHWVRQAPGKGLEWVAVIWYDGSNIYYSDSVKGRFTISRANSKNTLYLQMNSLRAEDTAVYYCARPGHWNYFFEYWGQGTLVTVSS VL: DIQMTQSPSSLSASVGDRVTITCRASQSINNYLNWYQQKPGKAPKLLIYTASSLQSGVPSRFSGSGSGTDFTLTISSLQPEDFATYYCQQSYSTPPLTFGQGTQLEIK , please?
Output line: 6.52e-09

Input line: Entry H1M7799N (antibody, V domains shown, human variable regions, mouse IgG1 Fc) VH: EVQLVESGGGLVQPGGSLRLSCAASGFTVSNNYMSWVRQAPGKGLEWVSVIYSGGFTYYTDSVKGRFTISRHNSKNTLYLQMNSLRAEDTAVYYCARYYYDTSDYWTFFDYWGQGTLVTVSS VL: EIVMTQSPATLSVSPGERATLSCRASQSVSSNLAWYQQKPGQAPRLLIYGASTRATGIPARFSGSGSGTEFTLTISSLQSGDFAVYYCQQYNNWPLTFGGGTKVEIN please
Output line: 2.97e-08

Values were extracted from patent US20150203579A1.
